Assignment: determine reported IC50 for the given compounds.
targetUnderTest: recombinant 15-LOX enzyme (Homo sapiens)
experimentalDetails: 15-LOX fluorescent assay
Format: biochemical
runParameters: several values in one cell = repeat determinations; read-out: IC50 (μM) values for in vitro lipoxygenase inhibition, 15-LOX
Numbers only, in µM.

compound: c1ccc2c(c1)CCc1ccc(NCCCN3CCOCC3)cc1N2 [SS20308-0303-01]
targetUnderTest: recombinant 15-LOX enzyme (Homo sapiens)
resultUnits: µM
IC50: 0.9

Could you report IC50 for every entry in the following list?
1. Fc1ccc2[nH]c3cc(C(F)(F)F)c(NCC4(Cn5cncn5)COC4)cc3c2c1 [SS20308-0295-01]
2. c1ccc(N(CCCn2cncn2)c2ccc3c(c2)[nH]c2ccccc23)cc1 [SS20308-0060-01]

[0.49, 2.19]

Could you report IC50 for every entry in the following list?
1. CN(C)CCOc1ccc(Cl)c2c1-c1[nH]c3ccc(F)cc3c1CS2 [SS20308-0093-01]
2. CN(C)CC1(COc2c3[nH]c4ccc(F)cc4c3c(F)c3[nH]c4ccc(F)cc4c23)COC1 [SS20308-0185-01]
3. COc1cccc2c1[nH]c1ccc(F)cc12 [SS20308-0002-01, 6-fluoro-1-methoxy-9H-carbazole]
4. c1ccc(NC2CCc3[nH]c4ccccc4c3C2)cc1 (centres unmarked) [SS20308-0158-01]
5. CN(C)CCCOc1cccc2c1-c1[nH]c3ccccc3c1CS2 [SS20308-0090-01]

[2.37, 0.05, 4.33, 1.55, 0.69]

Could you report IC50 for every entry in the following list?
1. CN(C)CCOc1c2[nH]c3ccccc3c2cc2[nH]c3ccccc3c12 [SS20308-0065-01]
2. CN(C)CCOc1cc2c3ccccc3[nH]c2c2[nH]c3ccccc3c12 [SS20308-0103-01]
3. Fc1ccc2[nH]c3c(NCCn4cncn4)c(-c4ccccc4)ccc3c2c1 [SS20308-0154-01]
4. CN(C)CCC(c1ccccc1)c1ccc2[nH]c3ccccc3c2c1 (centres unmarked) [SS20308-0183-01]
5. Fc1cccc2c1[nH]c1cc3c(cc12)CCN3CCn1cncn1 [SS20308-0243-01]
6. Fc1ccc2[nH]c3cc4c(cc3c2c1)CCN4CCn1cncn1 [SS20308-0208-01]
7. Cc1cc2[nH]c3ccc(F)cc3c2cc1NCC1(Cn2cncn2)COC1 [SS20308-0233-01]

0.03
0.06
0.44
13.1
1.13
0.18
0.2

Could you report IC50 for every entry in the following list?
1. CC1(C)CN(CCn2cncn2)c2cc3[nH]c4ccccc4c3cc21 [SS20308-0209-01]
2. COc1c2[nH]c(-c3ccccc3)nc2c(F)c2c1[nH]c1ccccc12 [SS20308-0137-01]
3. CN(C)CCOc1c2[nH]c(-c3ccccc3)nc2c(F)c2c1[nH]c1ccccc12 [SS20308-0121-01]

1.12
0.5
0.86

====

targetUnderTest: recombinant 15-LOX enzyme (Homo sapiens, UniProt P16050)
Sequence (P16050 1-662): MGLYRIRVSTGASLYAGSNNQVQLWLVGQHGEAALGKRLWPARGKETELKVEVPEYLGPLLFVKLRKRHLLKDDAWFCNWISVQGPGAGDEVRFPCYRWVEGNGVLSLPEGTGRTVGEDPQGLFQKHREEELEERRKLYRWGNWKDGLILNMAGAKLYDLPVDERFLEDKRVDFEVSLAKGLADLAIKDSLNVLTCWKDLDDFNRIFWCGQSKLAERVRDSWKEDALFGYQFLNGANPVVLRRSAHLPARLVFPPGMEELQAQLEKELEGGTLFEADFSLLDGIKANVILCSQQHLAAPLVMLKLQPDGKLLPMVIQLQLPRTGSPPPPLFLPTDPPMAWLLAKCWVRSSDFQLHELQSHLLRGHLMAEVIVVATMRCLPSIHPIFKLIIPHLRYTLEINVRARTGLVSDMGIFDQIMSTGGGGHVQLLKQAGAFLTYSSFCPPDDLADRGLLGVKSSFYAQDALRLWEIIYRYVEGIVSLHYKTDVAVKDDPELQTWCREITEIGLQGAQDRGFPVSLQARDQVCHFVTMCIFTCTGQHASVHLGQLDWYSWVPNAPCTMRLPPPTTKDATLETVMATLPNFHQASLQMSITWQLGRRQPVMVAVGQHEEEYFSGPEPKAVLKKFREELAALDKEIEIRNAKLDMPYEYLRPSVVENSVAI
experimentalDetails: 15-LOX fluorescent assay
Assay type: biochemical
runParameters: several values in one cell = repeat determinations; read-out: IC50 (μM) values for in vitro lipoxygenase inhibition, 15-LOX
Checkbox rule: IC50 lower than 3 µM = 1; IC50 not lower than 3 µM = 0.

The following compounds have reported results that may help.
compound: c1ccc2c(c1)CCc1cc(C3CC3)c(NCCn3cncn3)cc1N2 [SS20308-0269-01]
classLabel: 1
//
compound: CN(C)CCOc1c(CNc2ccccc2)ccc2c1[nH]c1ccccc12 [SS20308-0086-01]
classLabel: 1
//
compound: c1ccc2c(c1)CCc1ccc(NCCn3cncn3)cc1N2 [SS20308-0224-01]
classLabel: 1
//
compound: CN(C)CCOc1cc2c3ncccc3[nH]c2c2c1[nH]c1cccnc12 [SS20308-0070-01]
classLabel: 0
//
compound: Clc1c(NCCn2cncn2)ccc2c1Nc1ccccc1CC2 [SS20308-0273-01]
classLabel: 0

Threshold test, IC50 < 3 µM: CN(C)CCOc1c(O)ccc2c1[nH]c1ccc(F)cc12 [SS20308-0004-01]
1

Threshold test, IC50 < 3 µM: Cc1cc(OCCn2cncn2)c2[nH]c3ccccc3c2c1 [SS20308-0017-01]
0

Threshold test, IC50 < 3 µM: CN(C)CCOc1c(NCc2ccccc2)ccc2c1[nH]c1ccc(F)cc12 [SS20308-0036-01]
1

The origin of these recorded values is patent US20230174485A1.
